Target: T1, 4H3709-AA
T1 chain: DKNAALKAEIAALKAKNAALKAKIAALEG
Assay: two-hybrid library CCmax;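 further: natural log of median RNA to DNA barcode read ratio; higher means stronger binding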
Settings: mean of both orientations
experimental.endpoint: interaction score

Briefly, interaction score measured for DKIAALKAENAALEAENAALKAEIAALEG [4H2713-AA] : -1.95

Record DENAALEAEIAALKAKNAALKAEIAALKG [4H1146-AA] . Reported interaction score: -0.436

For record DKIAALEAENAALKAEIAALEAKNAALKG [4H2248-AA] the listed interaction score is -1.23

// interaction score value for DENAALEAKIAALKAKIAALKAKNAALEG [4H1391-AA] : -1.44
